Data provenance is the supplement of paper PMC12636033.

tested on: 2Sb-muMax20 (muMax20 with two 1,3-bis(methyl)benzene Cys staples, A13C/A17C and Q88C/A92C, C-terminal Lys); assay: PBM 8-mer E-score (E-score (rank enrichment, -0.5 to 0.5)); higher = stronger preferential binding
The full ranking holds about 33,000 sequences; the median of “E-score (rank enrichment, -0.5 to 0.5)” is about -0.0028, and the highest 2% start at about 0.23. This excerpt belongs to a sample that is enriched for the highest values.
attribute-measured: PBM 8-mer E-score

ATACAAAA: 0.296
TAGTGGGA: 0.038
TTACAAAA: 0.181
AGACTGCC: -0.138
CCCCCCCG: -0.2
ACGTGGGG: 0.261
GATGAATC: 0.06
ACGTGGTA: 0.216
GGCCCGCC: -0.185
GCCCCGCA: 0.0269
AGGGTCCC: -0.337
ACGTGGGC: 0.169
GTACAAAC: 0.028
TATGAATA: 0.211
CGGCTAAC: -0.13
CAGGTCCG: -0.237
AACCCGCC: 0.123
GAACGATA: 0.0756
ACAAGAAC: 0.152
GTACAAAA: 0.27
AGTTCGTA: -0.119
ACCCCGCC: 0.318

###

test system: 2Sb-muMax20 (muMax20 with two 1,3-bis(methyl)benzene Cys staples, A13C/A17C and Q88C/A92C, C-terminal Lys); test: PBM 8-mer E-score (E-score (rank enrichment, -0.5 to 0.5)); higher = stronger preferential binding
In all, about 33,000 sequences were measured (“E-score (rank enrichment, -0.5 to 0.5)”: median about -0.0028, highest 2% from about 0.23 on). Shown is part of a subset that was picked to be rich in the highest values.
Param threshold (0.06) applies to PBM 8-mer E-score; output Condition met when value >= threshold, Condition not met when value < threshold.

TAGACCCA: Condition met
CGCGGGGA: Condition not met
AGGCGGGC: Condition not met
GGGCGGAA: Condition met
AGTTAATC: Condition not met
GATAGCCC: Condition not met
CGCAGTAA: Condition met
AGAAATGC: Condition met
CAGACATG: Condition not met
AGAAATGG: Condition met
ACACATGA: Condition not met
CGTGGAGA: Condition met
AGAGGCCC: Condition not met
CGTACCCC: Condition met
GATGCGAC: Condition not met
CAGCAGGC: Condition not met
CGTACCCA: Condition not met
AGCAGACA: Condition not met
AGGGCGGA: Condition not met
CGAATGCC: Condition not met
CGAATGCG: Condition not met
AGTTAATA: Condition met
CGGCGGGA: Condition not met
AGGGCGGG: Condition met
ACGAATGG: Condition met
CCTCCGTC: Condition not met
CCGCTGTA: Condition not met
GCTACCCC: Condition not met
AATGGCGG: Condition not met
AATTATTA: Condition met
AGGCGGGG: Condition met
CCTTCACG: Condition not met
TGCACTAA: Condition met
AGGGCGGC: Condition not met
AGTACCCC: Condition met
ATATCCAT: Condition met
ACTCTTTC: Condition not met
GGAATGTA: Condition met
CCTTCACA: Condition met
AGAAATGA: Condition not met
CGAATGCA: Condition met
GGTGCCGA: Condition not met
ACTACCCC: Condition met
AATTAATT: Condition met
CTATGCGC: Condition not met
CGAATGTA: Condition met

###

tested on: 2Sb-muMax20 (muMax20 with two 1,3-bis(methyl)benzene Cys staples, A13C/A17C and Q88C/A92C, C-terminal Lys); test: PBM 8-mer E-score (E-score (rank enrichment, -0.5 to 0.5)); higher = stronger preferential binding
Over roughly 33,000 sequences, “E-score (rank enrichment, -0.5 to 0.5)” has its median near -0.0028; the highest 2% begin near 0.23. For the sample, the highest values were picked, then their nearest neighbours and some sequences at random.
Reported PBM 8-mer E-score values for the following sequences.
attribute-measured: PBM 8-mer E-score

CACGTGCG: 0.39
AACGTGCG: 0.152
TACGTGCA: 0.162
CGGATGTA: -0.172
GTCTTCAC: -0.127
AGGGTTCC: -0.294
AACGTGCC: 0.0151
CAAGCATC: -0.0457
AGGCCGCG: -0.113
AACGTGCA: 0.0984
CCGCTGGC: -0.26
GTTTCTGA: 0.0103
CACGTGCA: 0.417
ACAGGTCT: -0.101
CACGTGCC: 0.377
AATGGCGT: 0.0723
ACCGTAGC: -0.0428
ATAGATAG: 0.204
AAAGTGCA: 0.0798
CCTGTTAG: -0.0682
ATATATCC: 0.24
GTCCCCGA: 0.0628

###

system: 2Sb-muMax20 (muMax20 with two 1,3-bis(methyl)benzene Cys staples, A13C/A17C and Q88C/A92C, C-terminal Lys); assay: PBM 8-mer E-score (E-score (rank enrichment, -0.5 to 0.5)); higher = stronger preferential binding
Whole data set: some 33,000 sequences, median “E-score (rank enrichment, -0.5 to 0.5)” near -0.0028, cut for the highest 2% near 0.23. The sample holds the highest values, similar sequences and a random draw of the others, so the mix is not that of the screen.
Param threshold (0.1) applies to PBM 8-mer E-score; output true (1) when value >= threshold, false (0) when value < threshold.

AGCCTTCA: true (1)
ACTCGTAA: true (1)
AGATTTTG: false (0)
GAAATCCA: false (0)
AATTGGCT: true (1)
ATGCATTG: true (1)
ACGCGCCC: false (0)
ATGCATCA: true (1)
ATGCAATA: true (1)
CCATGCGA: false (0)
AAAGAATG: false (0)
CGTATACC: false (0)
AAAATCCA: true (1)
AGCGTATG: false (0)
CGTATACA: false (0)
CACGTGAA: true (1)
CCTGACCC: false (0)
AAGGTCCT: false (0)
ATGCATTC: true (1)
AAATCTGG: false (0)
CGTATACG: true (1)
GTGCATTA: false (0)
AATTTCCC: true (1)
ACAATCTC: true (1)
ATTGTAGC: false (0)
GGTATACA: true (1)
ATGAACGG: false (0)
CCCCGTAG: false (0)
AGTATACA: true (1)
GGATCTAC: false (0)
CGTCTGAG: false (0)
TACGTGAA: false (0)
GTGCAATA: true (1)
ATGCATCG: false (0)
ACACCTCA: false (0)
CTGCATTC: false (0)
GTGCATCA: false (0)
ATTCGGAG: false (0)
GGCTCGGA: false (0)
ACCCGTAA: false (0)
CCGCTGCC: false (0)
ATTGAAGC: false (0)
GATTTCCC: false (0)
TTAGCAAA: true (1)
CGTTTCTC: false (0)
CTTGGAAC: true (1)

###

system: 2Sb-muMax20 (muMax20 with two 1,3-bis(methyl)benzene Cys staples, A13C/A17C and Q88C/A92C, C-terminal Lys); experiment: PBM 8-mer E-score (E-score (rank enrichment, -0.5 to 0.5)); higher = stronger preferential binding
In all, about 33,000 sequences were measured (“E-score (rank enrichment, -0.5 to 0.5)”: median about -0.0028, highest 2% from about 0.23 on). What follows is part of a selection rich in the highest values, with near analogues and random picks from the rest.
Param threshold (0.1) applies to PBM 8-mer E-score; output 1 (yes) when value >= threshold, 0 (no) when value < threshold.

GCGATCGC: 1 (yes)
GCCTCCCA: 0 (no)
AAAAGTAA: 0 (no)
CTTTTGTA: 1 (yes)
TGCCCCAA: 1 (yes)
CCCCCTTC: 0 (no)
AGCGTGCC: 0 (no)
AGCCCCAA: 1 (yes)
AGGAACTG: 0 (no)
CTTGCTGA: 0 (no)
GTCCCCAC: 0 (no)
AAGTTAAC: 1 (yes)
ACATGTGC: 1 (yes)
ACCCCTCC: 1 (yes)
ATTTTGTG: 0 (no)
AACCCTCC: 0 (no)
AGTGGCTA: 0 (no)
GGTTTGTA: 0 (no)
ATTTGAGA: 1 (yes)
TCCCCAAA: 1 (yes)
AAGCAACT: 0 (no)
TAGTATGA: 1 (yes)
TCCCCCAA: 0 (no)
ATTAGGTG: 1 (yes)
CGCAAACG: 0 (no)
GCTCTGCA: 0 (no)
AACGGTGG: 0 (no)
CTCCCCAC: 1 (yes)
ACTCCCCT: 1 (yes)
TCTCCCCA: 1 (yes)
ACAGATTA: 0 (no)
CATATGGG: 1 (yes)
CAACCGCG: 0 (no)
TCCCCTAA: 1 (yes)
AAATGTGG: 1 (yes)
TATGCAAA: 0 (no)
TGCCCCCA: 0 (no)
ATACGTAC: 1 (yes)
CAGTTAAC: 0 (no)
GAGTTAAC: 0 (no)
GTTTTGCA: 0 (no)
ACGCCCCT: 1 (yes)
CCTCCCCC: 0 (no)
ACTTAGAA: 0 (no)
CGCTAGCA: 0 (no)
ATTTGTTA: 1 (yes)
ATTCCGCC: 1 (yes)
GGCCCCAA: 1 (yes)
ACTCCCCC: 0 (no)
CCGTAGAG: 0 (no)
GCCCCTAA: 1 (yes)
ACTCCCCG: 1 (yes)
GATATATA: 1 (yes)
ACCCCTAA: 1 (yes)
GGAAATAC: 0 (no)
TGCCCAAA: 0 (no)
ATAAGAAC: 1 (yes)
CGATTGAC: 0 (no)
ATACGTAA: 1 (yes)
CATAGATG: 0 (no)
ACCCCTAG: 1 (yes)
ACTCCCAA: 1 (yes)
TGCTAGCA: 1 (yes)
ATTTGTTC: 1 (yes)
AATGCATG: 1 (yes)
GTGTTAAC: 0 (no)
GTTTTGTA: 1 (yes)
GATAGATA: 0 (no)
ATGTTAAC: 1 (yes)
ACGATCGC: 0 (no)
CATAGATA: 1 (yes)
TTCCCAAA: 0 (no)
CCTCCCAA: 0 (no)
ATACGTAT: 1 (yes)
ACCCGCCT: 0 (no)
ATTGCATG: 1 (yes)
CCTCCCCA: 1 (yes)
CCATGTGA: 1 (yes)
AATGCAAA: 1 (yes)
ACCTCCCA: 0 (no)
CCGATCGC: 0 (no)
CAGCCTCG: 0 (no)
AAGCTTCT: 1 (yes)
ACTGCAGC: 0 (no)
ACTTGCGA: 1 (yes)
TATAGATA: 1 (yes)
ACACATGT: 1 (yes)
CTAAGTAC: 0 (no)
GGCTAGCA: 0 (no)
